Tgt: T1, cynomolgus monkey IL-33 expressed with a C-terminal hexahistidine tag (cynomolgus monkey)
T1 construct: also called MfIL-33-6His; Mf-IL-33-6His
T1 chain: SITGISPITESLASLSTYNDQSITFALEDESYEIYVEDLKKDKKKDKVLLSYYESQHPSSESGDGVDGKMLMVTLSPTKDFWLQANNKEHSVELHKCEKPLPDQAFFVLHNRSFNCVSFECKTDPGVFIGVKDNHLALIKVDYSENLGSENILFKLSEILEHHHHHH
Test name: BLI; captured MfIL-33-6His, mAb-1 step with Isotype control
Measurement type: mAb-2 Binding to the Pre-complex of mAb-1 & MfIL-33-6xHis (nm)
Number only, in nm; omit the unit.

## Input Please report the recorded mAb-2 Binding to the Pre-complex of mAb-1 & MfIL-33-6xHis for H4H9676P (antibody, human IgG4, V domains shown, Human IgG4 Fc (H4H)) VH: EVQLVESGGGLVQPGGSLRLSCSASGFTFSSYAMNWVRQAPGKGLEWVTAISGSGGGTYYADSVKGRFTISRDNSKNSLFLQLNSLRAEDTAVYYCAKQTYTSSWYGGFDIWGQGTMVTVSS VL: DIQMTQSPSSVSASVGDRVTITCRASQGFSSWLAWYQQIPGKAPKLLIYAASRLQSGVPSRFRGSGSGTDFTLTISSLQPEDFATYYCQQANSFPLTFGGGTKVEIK .
## Output 0.25

## Input Please report the recorded mAb-2 Binding to the Pre-complex of mAb-1 & MfIL-33-6xHis for H4H9670P (antibody, V domains shown, Human IgG4 Fc (H4H)) VH: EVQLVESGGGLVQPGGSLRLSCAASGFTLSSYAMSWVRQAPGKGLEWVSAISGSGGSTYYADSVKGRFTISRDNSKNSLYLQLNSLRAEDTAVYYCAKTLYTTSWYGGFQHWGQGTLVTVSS VL: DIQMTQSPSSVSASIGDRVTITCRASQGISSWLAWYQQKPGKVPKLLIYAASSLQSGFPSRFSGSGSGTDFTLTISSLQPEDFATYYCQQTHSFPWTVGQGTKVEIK .
## Output 0.23

## Input Please report the recorded mAb-2 Binding to the Pre-complex of mAb-1 & MfIL-33-6xHis for H4H9671P (antibody, human IgG4, V domains shown, Human IgG4 Fc (H4H)) VH: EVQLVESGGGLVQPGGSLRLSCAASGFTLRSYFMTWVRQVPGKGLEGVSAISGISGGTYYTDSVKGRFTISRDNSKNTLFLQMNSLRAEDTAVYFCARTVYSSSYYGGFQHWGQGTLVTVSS VL: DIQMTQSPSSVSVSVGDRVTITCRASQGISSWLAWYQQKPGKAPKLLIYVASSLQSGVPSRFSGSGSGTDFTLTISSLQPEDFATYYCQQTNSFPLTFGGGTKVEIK .
## Output 0.26

Pending binder:
## Input Please report the recorded mAb-2 Binding to the Pre-complex of mAb-1 & MfIL-33-6xHis for H4H9675P (antibody, human IgG4, V domains shown, Human IgG4 Fc (H4H)) VH: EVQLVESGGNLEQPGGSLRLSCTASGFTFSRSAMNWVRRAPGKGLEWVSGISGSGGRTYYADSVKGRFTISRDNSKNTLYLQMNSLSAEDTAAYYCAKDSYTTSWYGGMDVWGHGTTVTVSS VL: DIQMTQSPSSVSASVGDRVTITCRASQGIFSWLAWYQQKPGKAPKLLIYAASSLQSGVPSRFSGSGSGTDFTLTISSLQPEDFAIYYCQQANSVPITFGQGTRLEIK .
## Output 0.26
